All figures here come from patent US7098013B2.

Tested on: α-isomaltosyl-transferring enzyme
Test: Action of the purified C11 enzyme on saccharide substrates (saccharide composition by HPLC)
Type: biochemical, Bacillus globisporus C11
Conditions: C11 enzyme 2 units/mM-substrate, 10 mM substrate, 30° C., pH 6.0, 12 hours
Measured parameter: Content of Cyclotetrasaccharide in the reaction mixture (%)
Give the number; % is assumed, so skip it.

OC[C@H]1O[C@H](OC[C@H]2O[C@H](O[C@H]3[C@H](O)[C@@H](O)C(O)O[C@@H]3CO)[C@H](O)[C@@H](O)[C@@H]2O)[C@H](O)[C@@H](O)[C@@H]1O (stereo partly shown) : 43.5

Task: Need Content of Cyclotetrasaccharide in the reaction mixture, item OC[C@H]1O[C@H](OC[C@H]2O[C@H](O[C@H]3[C@H](O)[C@@H](O)[C@@H](O[C@H]4[C@H](O)[C@@H](O)[C@@H](O[C@H]5[C@H](O)[C@@H](O)[C@@H](O[C@H]6[C@H](O)[C@@H](O)C(O)O[C@@H]6CO)O[C@@H]5CO)O[C@@H]4CO)O[C@@H]3CO)[C@H](O)[C@@H](O)[C@@H]2O)[C@H](O)[C@@H](O)[C@@H]1O (stereo partly shown)
Result: 18.2

Task: What value of Content of Cyclotetrasaccharide in the reaction mixture has been recorded for this entry: OC[C@H]1O[C@H](OC[C@H]2O[C@H](O[C@H]3[C@H](O)[C@@H](O)[C@@H](O[C@H]4[C@H](O)[C@@H](O)[C@@H](O[C@H]5[C@H](O)[C@@H](O)C(O)O[C@@H]5CO)O[C@@H]4CO)O[C@@H]3CO)[C@H](O)[C@@H](O)[C@@H]2O)[C@H](O)[C@@H](O)[C@@H]1O (stereo partly shown)
Result: 25.6

Task: Give its Content of Cyclotetrasaccharide in the reaction mixture value. Item: OC[C@H]1O[C@H](OC[C@H]2O[C@H](O[C@H]3[C@H](O)[C@@H](O)[C@@H](O[C@H]4[C@H](O)[C@@H](O)C(O)O[C@@H]4CO)O[C@@H]3CO)[C@H](O)[C@@H](O)[C@@H]2O)[C@H](O)[C@@H](O)[C@@H]1O (stereo partly shown)
Result: 30.8

====

Test system: α-isomaltosyl-transferring enzyme
Assay: Action of the purified C11 enzyme on saccharide substrates (saccharide composition by HPLC)
Format: biochemical, Bacillus globisporus C11
Details: C11 enzyme 2 units/mM-substrate, 10 mM substrate, 30° C., pH 6.0, 12 hours
# maps each entry to its Content of Isomaltose in the reaction mixture
Give the number; % is assumed, so skip it.

// worked examples, Content of Isomaltose in the reaction mixture included
OC[C@H]1O[C@H](OC[C@H]2O[C@H](O[C@H]3[C@H](O)[C@@H](O)[C@@H](O[C@H]4[C@H](O)[C@@H](O)C(O)O[C@@H]4CO)O[C@@H]3CO)[C@H](O)[C@@H](O)[C@@H]2O)[C@H](O)[C@@H](O)[C@@H]1O (stereo partly shown) : 2.0
OC[C@H]1O[C@H](OC[C@H]2O[C@H](O[C@H]3[C@H](O)[C@@H](O)[C@@H](O[C@H]4[C@H](O)[C@@H](O)[C@@H](O[C@H]5[C@H](O)[C@@H](O)[C@@H](O[C@H]6[C@H](O)[C@@H](O)C(O)O[C@@H]6CO)O[C@@H]5CO)O[C@@H]4CO)O[C@@H]3CO)[C@H](O)[C@@H](O)[C@@H]2O)[C@H](O)[C@@H](O)[C@@H]1O (stereo partly shown) : 1.6
OC[C@H]1O[C@H](OC[C@H]2O[C@H](O[C@H]3[C@H](O)[C@@H](O)[C@@H](O[C@H]4[C@H](O)[C@@H](O)[C@@H](O[C@H]5[C@H](O)[C@@H](O)C(O)O[C@@H]5CO)O[C@@H]4CO)O[C@@H]3CO)[C@H](O)[C@@H](O)[C@@H]2O)[C@H](O)[C@@H](O)[C@@H]1O (stereo partly shown) : 1.9

// below: Content of Isomaltose in the reaction mixture requested for another compound
Task: Could you tell me which Content of Isomaltose in the reaction mixture is on file for OC[C@H]1O[C@H](OC[C@H]2O[C@H](O[C@H]3[C@H](O)[C@@H](O)C(O)O[C@@H]3CO)[C@H](O)[C@@H](O)[C@@H]2O)[C@H](O)[C@@H](O)[C@@H]1O (stereo partly shown) ?
Result: 2.1

====

yield of cyclotetrasaccharide in dry basis from the substrate reference
Test system: α-isomaltosyl-transferring enzyme
Test: Action of the purified N75 enzyme on saccharide substrates (saccharide composition by HPLC)
Type: biochemical, Bacillus globisporus N75
Settings: N75 enzyme; summary of Table 6
// return numeric value only (unit: %, not printed)

The following compounds have reported results that may help.
OC[C@H]1O[C@H](OC[C@H]2O[C@H](O[C@H]3[C@H](O)[C@@H](O)[C@@H](O[C@H]4[C@H](O)[C@@H](O)C(O)O[C@@H]4CO)O[C@@H]3CO)[C@H](O)[C@@H](O)[C@@H]2O)[C@H](O)[C@@H](O)[C@@H]1O (stereo partly shown) : 30.9
OC[C@H]1O[C@H](OC[C@H]2O[C@H](O[C@H]3[C@H](O)[C@@H](O)[C@@H](O[C@H]4[C@H](O)[C@@H](O)[C@@H](O[C@H]5[C@H](O)[C@@H](O)[C@@H](O[C@H]6[C@H](O)[C@@H](O)C(O)O[C@@H]6CO)O[C@@H]5CO)O[C@@H]4CO)O[C@@H]3CO)[C@H](O)[C@@H](O)[C@@H]2O)[C@H](O)[C@@H](O)[C@@H]1O (stereo partly shown) : 18.7
OC[C@H]1O[C@H](OC[C@H]2O[C@H](O[C@H]3[C@H](O)[C@@H](O)[C@@H](O[C@H]4[C@H](O)[C@@H](O)[C@@H](O[C@H]5[C@H](O)[C@@H](O)C(O)O[C@@H]5CO)O[C@@H]4CO)O[C@@H]3CO)[C@H](O)[C@@H](O)[C@@H]2O)[C@H](O)[C@@H](O)[C@@H]1O (stereo partly shown) : 25.8

Shift focus to the following entry.
Task: Which yield of cyclotetrasaccharide in dry basis from the substrate is reported for this compound? OC[C@H]1O[C@H](OC[C@H]2O[C@H](O[C@H]3[C@H](O)[C@@H](O)C(O)O[C@@H]3CO)[C@H](O)[C@@H](O)[C@@H]2O)[C@H](O)[C@@H](O)[C@@H]1O (stereo partly shown)
Result: 43.2
